Origin of values: the supplement of paper PMC9233669

test system: biotinyl-Met-oxazolone; experiment: self-aminoacylation, catalytic enhancement (BMO) (fold over background); higher = more active; k-Seq, kA / k0A0; sequences stand for … in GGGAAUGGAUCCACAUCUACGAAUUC…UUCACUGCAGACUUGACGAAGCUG
Variants at the floor of the assay were thinned out.
Each entry below carries its reported self-aminoacylation.
Give your answer as a number; write no unit.

Reference set, count: 6
AUUCACUUAGGUCCUCGGGUG [Fam2.2 aminoacylation ribozyme variant]    4.58
AAGUGUGCUAAUAGUCCCAAG [Fam3.1 aminoacylation ribozyme variant]    1.17
AUUCACCUAGGUCAUUGAGUG [Fam2.2 aminoacylation ribozyme variant]    3.53
AUUCACCAAGCUCAUCGGGUG [Fam2.2 aminoacylation ribozyme variant]    2.13
AUUACCCGGGGCAUCGAGUGA [Fam2.1 aminoacylation ribozyme variant]    8.31
AAGUUCGCUAAUAAUCGCAAG [Fam3.1 aminoacylation ribozyme variant]    1.24

[ask] Which value of self-aminoacylation has been reported for AAGUUUGCAAAUAGUAGCAAG [Fam3.1 aminoacylation ribozyme variant] in the records?
[reply] 1.03

[ask] Which value of self-aminoacylation has been reported for AUACUUCAAACAAUUGGUCUG [Fam1A.1 aminoacylation ribozyme variant] in the records?
[reply] 0.903

[ask] Which value of self-aminoacylation has been reported for AAGUUUGCUAAUUGUCGCAAG [Fam3.1 aminoacylation ribozyme variant] in the records?
[reply] 0.788

[ask] Which value of self-aminoacylation has been reported for CUAUUUCAAACAAUCGGGCUG [Fam1A.1 aminoacylation ribozyme variant] in the records?
[reply] 1.08

[ask] Which value of self-aminoacylation has been reported for AUUCGCCUAGGUCAUCGGGUG [Fam2.2 aminoacylation ribozyme variant] in the records?
[reply] 45.8

[ask] Which value of self-aminoacylation has been reported for CUACAUCAAACAAUCGGUCUU [Fam1A.1 aminoacylation ribozyme variant] in the records?
[reply] 0.791

[ask] Which value of self-aminoacylation has been reported for CUACUUCAAACAAUCGGUGGG [Fam1A.1 aminoacylation ribozyme variant] in the records?
[reply] 0.811

[ask] Which value of self-aminoacylation has been reported for CUACUCCAAACAAUCGGGCUG [Fam1A.1 aminoacylation ribozyme variant] in the records?
[reply] 1.61

[ask] Which value of self-aminoacylation has been reported for AUUACCCUAGUCAUCGAGUGU [Fam2.1 aminoacylation ribozyme variant] in the records?
[reply] 2.47

[ask] Which value of self-aminoacylation has been reported for CUACUUUAAAAAAUCGGUCUG [Fam1A.1 aminoacylation ribozyme variant] in the records?
[reply] 0.987

[ask] Which value of self-aminoacylation has been reported for AUUACCCUGAUCGUCGAGUGA [Fam2.1 aminoacylation ribozyme variant] in the records?
[reply] 0.75

[ask] Which value of self-aminoacylation has been reported for CUACUUCAACCAAUCAGUCUG [Fam1A.1 aminoacylation ribozyme variant] in the records?
[reply] 0.541

----------
test system: biotinyl-Val-oxazolone; test: self-aminoacylation, catalytic enhancement (BVO) (fold over background); higher = more active; k-Seq, kA / k0A0; sequences stand for … in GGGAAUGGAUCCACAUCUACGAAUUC…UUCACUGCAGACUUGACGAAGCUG
Variants at the floor of the assay were thinned out.
Each entry below carries its reported self-aminoacylation.
Give your answer as a number; write no unit.

Reference set, count: 5
CUACUUCUAACAAUGGGUCUG [Fam1A.1 aminoacylation ribozyme variant]    0.705
AUUACCCUGGGCCUCGAGUGA [Fam2.1 aminoacylation ribozyme variant]    2.61
AUUACCCUGGUCAUCGCGUGC [Fam2.1 aminoacylation ribozyme variant]    2.75
AUCCACUUAGGUCAUCGGGUG [Fam2.2 aminoacylation ribozyme variant]    4.85
UUACUUCAAACAAUCGGACUG [Fam1A.1 aminoacylation ribozyme variant]    0.854

[ask] Which value of self-aminoacylation has been reported for AAGUUUCCUAAUAGUCGCAAA [Fam3.1 aminoacylation ribozyme variant] in the records?
[reply] 1.43

[ask] Which value of self-aminoacylation has been reported for CUAUUUCAAACAAUCGGUCUU [Fam1A.1 aminoacylation ribozyme variant] in the records?
[reply] 0.827

[ask] Which value of self-aminoacylation has been reported for AUGCACCUAGGUCCUCGGGUG [Fam2.2 aminoacylation ribozyme variant] in the records?
[reply] 3.19

[ask] Which value of self-aminoacylation has been reported for AAGUAUGCUAAUCGUCGCAAG [Fam3.1 aminoacylation ribozyme variant] in the records?
[reply] 1.56

[ask] Which value of self-aminoacylation has been reported for CCACGCUUCAAGCAAACGGUC [Fam1B.1 aminoacylation ribozyme variant] in the records?
[reply] 0.665

[ask] Which value of self-aminoacylation has been reported for AAGUUUGCCAAUAGUCGUAAG [Fam3.1 aminoacylation ribozyme variant] in the records?
[reply] 0.732

[ask] Which value of self-aminoacylation has been reported for AUUCACCGAGGUCAUCGGGGG [Fam2.2 aminoacylation ribozyme variant] in the records?
[reply] 2.71

[ask] Which value of self-aminoacylation has been reported for GUUACCCUGGUCAUCGAGCGA [Fam2.1 aminoacylation ribozyme variant] in the records?
[reply] 3.46

[ask] Which value of self-aminoacylation has been reported for CUACUUCAUACAAUCGGUCUU [Fam1A.1 aminoacylation ribozyme variant] in the records?
[reply] 0.972

[ask] Which value of self-aminoacylation has been reported for AUUACCCUGGUCAUCGCGAGA [Fam2.1 aminoacylation ribozyme variant] in the records?
[reply] 2.21

[ask] Which value of self-aminoacylation has been reported for GUUACCCUGGUCAUUGAGUGA [Fam2.1 aminoacylation ribozyme variant] in the records?
[reply] 5.29

[ask] Which value of self-aminoacylation has been reported for CAACACUUCAAGCAACCGGUC [Fam1B.1 aminoacylation ribozyme variant] in the records?
[reply] 0.998

[ask] Which value of self-aminoacylation has been reported for CUUAUUCAAACAAUCGGUCUG [Fam1A.1 aminoacylation ribozyme variant] in the records?
[reply] 0.688
